System: THP-1 macrophages infected with Mycobacterium tuberculosis H37Rv
Assay: intracellular M.tb growth inhibition relative to DMSO (0) and 4 uM bedaquiline (100); higher = stronger inhibition of intracellular bacterial growth
Settings: 10 µM; 4 days
Counter-ions that a name gives are not always drawn.
Readout Name: intracellular M.tb growth inhibition (%)

Compound: COCC(=O)NC/C=C/c1ccc2ncnc(Nc3ccc(Oc4ccc(C)nc4)c(C)c3)c2c1
Readout Name: intracellular M.tb growth inhibition
Reading: 5.71
//
Compound: CN(C)CCOc1cc(-c2cn[nH]c2)ccc1NC(=O)C1COc2ccccc2O1 (stereo not given)
Readout Name: intracellular M.tb growth inhibition
Reading: -97.9
//
Compound: Cc1ccc(-n2nc(C(C)(C)C)cc2NC(=O)Nc2ccc(OCCN3CCOCC3)c3ccccc23)cc1
Readout Name: intracellular M.tb growth inhibition
Reading: -1.53
//
Compound: NC1(c2ccc(-c3nc4ccn5c(=O)[nH]nc5c4cc3-c3ccccc3)cc2)CCC1
Readout Name: intracellular M.tb growth inhibition
Reading: -62.1
//
Compound: CCOc1cc2ncc(C#N)c(Nc3ccc(OCc4ccccn4)c(Cl)c3)c2cc1NC(=O)/C=C/CN(C)C
Readout Name: intracellular M.tb growth inhibition
Reading: -146
//
Compound: O=S(=O)(c1cccc2cnccc12)N1CCCNCC1 [Fasudil HCl]
Readout Name: intracellular M.tb growth inhibition
Reading: 6.96
//
Compound: C[C@@H](N)[C@H]1CC[C@H](C(=O)Nc2ccncc2)CC1
Readout Name: intracellular M.tb growth inhibition
Reading: -59.3
//
Compound: Cc1cnc(-c2cnc(NCCNc3ccc(C#N)cn3)nc2-c2ccc(Cl)cc2Cl)[nH]1
Readout Name: intracellular M.tb growth inhibition
Reading: 7.29
//
Compound: NS(=O)(=O)c1nn2cc(-c3ccccc3)nc2s1
Readout Name: intracellular M.tb growth inhibition
Reading: 42.3
//
Compound: O=C(O)c1ccc2c(c1)nc(Nc1cccc(Cl)c1)c1ccncc12
Readout Name: intracellular M.tb growth inhibition
Reading: -112

====

This section presents molecules with their documented THP-1 cell loss values.
Test system: THP-1
Test: THP-1 cell loss relative to DMSO control; higher = more host cell loss (toxicity); extreme values may be limits of the assay
Conditions: 10 µM; 4 days; infection: M. tuberculosis H37Rv
Readout Name: THP-1 cell loss (%)

Molecule: CN(c1ccccc1CNc1nc(Nc2ccc3c(c2)CC(=O)N3)ncc1C(F)(F)F)S(C)(=O)=O
Measurement Target: THP-1
Readout Name: THP-1 cell loss
Reading: 100
//
Molecule: COc1cc(Oc2ccnc3cc(OC)c(OC)cc23)ccc1NC(=O)NC(C)c1nccs1 (racemic)
Measurement Target: THP-1
Readout Name: THP-1 cell loss
Reading: 10.7
//
Molecule: Cc1ccc(-n2nc(C(C)(C)C)cc2NC(=O)Nc2ccc(OCCN3CCOCC3)c3ccccc23)cc1
Measurement Target: THP-1
Readout Name: THP-1 cell loss
Reading: 50
//
Molecule: COc1cc2c(Oc3ccc(NC(=O)C4(C(=O)Nc5ccc(F)cc5)CC4)cc3F)ccnc2cc1OCCCN1CCOCC1
Measurement Target: THP-1
Readout Name: THP-1 cell loss
Reading: 100
//
Molecule: CN1CCC(CNc2ccc3ncc(-c4cccc(OC(F)(F)F)c4)n3n2)CC1
Measurement Target: THP-1
Readout Name: THP-1 cell loss
Reading: 55.8
//
Molecule: C[C@]1(O)C[C@@H](c2nc(-c3ccc4ccc(-c5ccccc5)nc4c3)c3c(N)nccn32)C1
Measurement Target: THP-1
Readout Name: THP-1 cell loss
Reading: 38.5
//
Molecule: C[C@@]1(C(=O)Nc2ccc(F)nc2)CCCN1c1nc(Nc2cc(C3CC3)n[nH]2)c2cccn2n1
Measurement Target: THP-1
Readout Name: THP-1 cell loss
Reading: 43.7
//
Molecule: Cn1c(Nc2ccc(C(F)(F)F)cc2)nc2cc(Oc3ccnc(-c4ncc(C(F)(F)F)[nH]4)c3)ccc21
Measurement Target: THP-1
Readout Name: THP-1 cell loss
Reading: 100
